Origin of values: the supplement of paper PMC10567573

B1: LARP4 (parent)
chain: WTVANMEEIKKLTTDPDLILEVLR

# Variants of: B1
# PROTOCOL_NOTES: protein stability index of a GFP-peptide fusion (GPS, HEK-293T) (PSI 1-6); higher = more stable;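 further: lentivirally expressed fusions sorted by FACS into six bins by GFP to DsRed ratio, PSI derived from sequencing read proportions per bin multiplied by bin number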
# PARTICULARS: c terminus: a fixed tail appended
Classification field: enter satisfied for protein stability index values not below 2, not satisfied for values below it.

>>> cat("E7G")
"satisfied"
>>> cat("L20S")
"satisfied"
>>> cat("L23H")
"satisfied"
>>> cat("T13W")
"not satisfied"
>>> cat("E8I")
"not satisfied"
>>> cat("E8W")
"not satisfied"
>>> cat("T13D")
"satisfied"
>>> cat("L18I")
"satisfied"
>>> cat("I19R")
"satisfied"
>>> cat("E21I")
"not satisfied"
>>> cat("L20P")
"satisfied"
>>> cat("I19E")
"satisfied"
>>> cat("I19D")
"satisfied"
>>> cat("V3L")
"satisfied"
>>> cat("E7D")
"satisfied"
>>> cat("A4K")
"satisfied"
>>> cat("L12S")
"satisfied"
>>> cat("R24H")
"not satisfied"
>>> cat("T14I")
"satisfied"
>>> cat("K11W")
"satisfied"
>>> cat("M6Y")
"not satisfied"
>>> cat("V22L")
"satisfied"
>>> cat("P16N")
"not satisfied"
>>> cat("T14E")
"satisfied"
>>> cat("M6C")
"satisfied"
>>> cat("T13N")
"not satisfied"
>>> cat("L18D")
"satisfied"
>>> cat("L12C")
"satisfied"
>>> cat("L18R")
"satisfied"
>>> cat("V3K")
"satisfied"
>>> cat("D15M")
"satisfied"
>>> cat("D17L")
"not satisfied"
>>> cat("E21L")
"not satisfied"
>>> cat("A4M")
"not satisfied"
>>> cat("L12Y")
"satisfied"
>>> cat("L18C")
"satisfied"
>>> cat("V22P")
"satisfied"
>>> cat("M6V")
"not satisfied"
